molecular target: T1, M7; test: scFv-phage ELISA
T1 construct: also called PD1 mutant M7
Outcome measure: OD490
Just the number, please, no unit after it.

PD1-52E8 (antibody, V domains shown, scFv-phage in the screening ELISA; whole IgG in the other assays) VH: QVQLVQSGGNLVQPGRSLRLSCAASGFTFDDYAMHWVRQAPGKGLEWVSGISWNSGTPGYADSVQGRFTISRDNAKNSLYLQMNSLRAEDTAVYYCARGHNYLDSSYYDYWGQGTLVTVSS VL: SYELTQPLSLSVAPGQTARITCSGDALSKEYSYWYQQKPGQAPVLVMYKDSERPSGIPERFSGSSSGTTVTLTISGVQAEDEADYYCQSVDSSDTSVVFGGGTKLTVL; 1
PD1-48A9 (antibody, V domains shown, scFv-phage in the screening ELISA; whole IgG in the other assays) VH: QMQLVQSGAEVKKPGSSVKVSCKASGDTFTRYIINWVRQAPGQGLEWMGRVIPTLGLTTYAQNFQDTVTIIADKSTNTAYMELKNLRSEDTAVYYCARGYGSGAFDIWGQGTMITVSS VL: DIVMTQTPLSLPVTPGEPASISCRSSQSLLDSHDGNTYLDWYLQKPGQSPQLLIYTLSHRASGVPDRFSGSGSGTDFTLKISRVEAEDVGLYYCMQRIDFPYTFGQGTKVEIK; 0.3

Now look at this one.
I would be grateful if you could share the reported OD490 for PD1-29H3 (antibody, V domains shown, scFv-phage in the screening ELISA; later whole IgG) VH: QMQLVESGGNLVQPGRSLRLSCAASGFTFDDYGMHWVRQAPGKGLEWVSSISWNSGTIGYADSVKGRFTISRDNAKNSLYLQMNSLRSEDTAVYYCARLLHQMNEHEFMDVWGQGTTVTVSS VL: QLVLTQPSSMSEAPGQRVTISCSGGTSNIGTNAVNWYQQPPGKAPTLLIYYDDRLTSGVSDRFSGSKSGTSASLAISRLQSEDEADYYCAAWDDSLNGWVFGGGTKLTVL .
1.4
